Cited source for all entries: patent US20230406921A1

- system-name: T1, recombinant antigen of the extracellular region of CD47 (Sino Biological, Cat: 12283-H08H) (human, UniProt Q08722 19-139)
- T1 construct: extracellular domain; also called recombinant CD47 extracellular region; CD47 recombinant protein
- T1 sequence (Q08722 19-139 limits assumed): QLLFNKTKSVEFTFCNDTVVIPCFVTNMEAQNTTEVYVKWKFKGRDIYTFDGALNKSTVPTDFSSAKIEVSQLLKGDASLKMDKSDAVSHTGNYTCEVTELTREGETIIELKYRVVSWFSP
- assay-remarks: Fortebio BLI, recombinant CD47
parameter: Kd (nM)
Respond numerically; units are nM and should not be typed.

Reference set (2 entries):
binder	Kd / nM
hz140-Hm13/hz182-L (antibody, V domains shown) VH: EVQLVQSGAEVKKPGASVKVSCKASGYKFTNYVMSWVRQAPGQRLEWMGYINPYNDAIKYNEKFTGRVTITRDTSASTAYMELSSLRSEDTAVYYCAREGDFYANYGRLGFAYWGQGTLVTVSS VL: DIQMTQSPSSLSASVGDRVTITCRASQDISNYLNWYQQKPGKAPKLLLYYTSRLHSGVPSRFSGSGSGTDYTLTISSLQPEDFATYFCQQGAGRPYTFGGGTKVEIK	5.97
hz140-Hm13/hz182-Lm3 (antibody, V domains shown) VH: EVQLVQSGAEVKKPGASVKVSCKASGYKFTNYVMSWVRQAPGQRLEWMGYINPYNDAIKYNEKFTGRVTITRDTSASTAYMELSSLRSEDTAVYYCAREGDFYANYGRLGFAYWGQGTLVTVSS VL: DIQMTQSPSSLSASVGDRVTITCRASQDISNYLNWYQQKPGKAPKLLLYYTSRLHSGVPSRFSGSGSGTDYTLTISSLQPEDIATYFCQQGAGRPYTFGGGTKVEIKR	16.7

Lab note: next binder to report on.
Return the recorded Kd value; entry: hz140-Hm13/hz182-Lm7 (antibody, V domains shown) VH: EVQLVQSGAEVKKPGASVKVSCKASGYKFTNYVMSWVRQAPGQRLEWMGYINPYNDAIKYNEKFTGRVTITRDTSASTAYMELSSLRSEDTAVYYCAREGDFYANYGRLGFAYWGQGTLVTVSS VL: DIQMTQSPSSLSASVGDRVTITCRASQDISNYLNWYQQKPGKAPKLLLYYTSRLHSGVPSRFSGSGSGTDYTLTISSLQPEDFATYFCQQGAGFPYTFGGGTKVEIKR
16.6
